target_system: UniProt:P28335
Sequence (P28335 whole entry): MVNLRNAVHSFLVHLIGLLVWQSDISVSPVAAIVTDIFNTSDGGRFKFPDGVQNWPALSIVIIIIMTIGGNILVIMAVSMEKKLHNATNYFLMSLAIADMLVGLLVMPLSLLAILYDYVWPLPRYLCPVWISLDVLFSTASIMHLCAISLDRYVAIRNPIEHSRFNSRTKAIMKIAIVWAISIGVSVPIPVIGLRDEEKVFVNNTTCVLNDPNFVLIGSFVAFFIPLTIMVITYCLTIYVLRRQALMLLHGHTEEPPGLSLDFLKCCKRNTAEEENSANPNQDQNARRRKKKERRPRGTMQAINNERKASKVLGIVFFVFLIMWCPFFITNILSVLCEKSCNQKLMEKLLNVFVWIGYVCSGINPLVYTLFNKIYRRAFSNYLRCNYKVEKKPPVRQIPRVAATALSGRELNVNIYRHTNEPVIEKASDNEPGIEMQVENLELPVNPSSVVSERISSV
Note to self: use Fulfilled only for Ki readings below 2 nM; a reading exactly at 2 nM still gets Not fulfilled.

Before answering, review these 10 worked examples.
structure_smiles: Cc1cc2c(cc1Cl)N(C(=O)Nc1cnc(Oc3cccnc3C)c(Cl)c1)CC2
class_name: Fulfilled
--
structure_smiles: Cc1ncccc1Oc1ccc(NC(=O)N2CCc3cc(C(F)(F)F)ccc32)cn1
class_name: Not fulfilled
--
structure_smiles: Cc1ncccc1Oc1ccc(NC(=O)N2CCc3cc(F)ccc32)cn1
class_name: Not fulfilled
--
structure_smiles: CCCc1ncccc1Oc1ccc(NC(=O)N2CCc3cc(C)c(Cl)cc32)cn1
class_name: Fulfilled
--
structure_smiles: Cc1ncccc1Oc1ccc(NC(=O)N2CCc3c2cc(Cl)c(C)c3Cl)cn1
class_name: Fulfilled
--
structure_smiles: Cc1ncccc1Oc1ccc(NC(=O)N2CCc3ccccc32)cn1
class_name: Not fulfilled
--
structure_smiles: Cc1cc2c(cc1Cl)N(C(=O)Nc1ccc(Oc3cccnc3Cl)nc1)CC2
class_name: Fulfilled
--
structure_smiles: Cc1ncccc1Oc1ccc(NC(=O)N2CCc3ccc(C(F)(F)F)cc32)cn1
class_name: Not fulfilled
--
structure_smiles: Cc1cc2c(cc1Cl)CCN2C(=O)Nc1ccc(Oc2cccnc2C)nc1
class_name: Fulfilled
--
structure_smiles: Cc1ncccc1Oc1ccc(NC(=O)N2CCc3c2cccc3C(F)(F)F)cn1
class_name: Not fulfilled

Find out if reported Ki for Cc1cc2c(cc1F)N(C(=O)Nc1ccc(Oc3cccnc3C)nc1)CC2 is less than 2 nM Fulfilled

Ki strictly < 2 nM for this compound? CSc1cc2c(cc1C(F)(F)F)N(C(=O)Nc1ccc(Oc3cccnc3C)nc1)CC2 Fulfilled

Ki strictly < 2 nM for this compound? Cc1ncccc1Oc1ccc(NC(=O)N2CCc3cc(I)ccc32)cn1 Not fulfilled

For Cc1ncccc1Oc1ccc(NC(=O)N2CCc3ccc(Cl)cc32)cn1 , is the recorded Ki below the cut-off of 2 nM? Not fulfilled
